Listed compounds paired with reported half-life
# test: Half life after 10 mg/kg oral administration in rat
# Assay type: ADME, organism-based
# Set-up: dose 10 mg/kg, route oral
# condition: in vivo
Only the number, expressed in min, is required.

| structure_notation | half-life / min |
| --- | --- |
| Cc1cc(=O)c(Oc2ccc(F)cc2F)c(-c2ccc(S(C)(=O)=O)cc2)o1 | 270 |
| Cc1cc(=O)c(Oc2ccc(Cl)cc2F)c(-c2ccc(S(C)(=O)=O)cc2)o1 | 198 |
| Cc1cc(=O)c(Oc2ccc(Br)cc2F)c(-c2ccc(S(C)(=O)=O)cc2)o1 | 216 |

Now consider the entry below.
Query (compound): Cc1cc(=O)c(Oc2ccc(Cl)cc2)c(-c2ccc(S(C)(=O)=O)cc2)o1 ; field requested: half-life
156
